The reported measurements were obtained from ChEMBL document CHEMBL4265892.

Tested on: Leishmania major
Assay: Antileishmanial activity against Leishmania major promastigotes after 72 hrs by Neubauer chamber based cell counting method
Assay type: functional, organism-based
experimentalReadout: IC50 (µM)

Some solved entries appear below for comparison.
CCCN1CN(CC(=O)O)CSC1=S: 39.3
C[C@@H]1[C@H](O)[C@@H](C)/C=C/C=C/C=C/C=C/C=C/C=C/C=C/[C@H](O[C@@H]2O[C@H](C)[C@@H](O)[C@H](N)[C@@H]2O)C[C@@H]2O[C@](O)(C[C@@H](O)C[C@@H](O)[C@H](O)CC[C@@H](O)C[C@@H](O)CC(=O)O[C@H]1C)C[C@H](O)[C@H]2C(=O)O: 0.31
CC(c1ccccc1)N1CN(CC(=O)O)CSC1=S (stereo not drawn): 30.7
CCN1CN(CC(=O)O)CSC1=S: 33.1

I. CCCN1CN(CC(=O)OCc2ccccc2)CSC1=S
II. CCCCN1CN(CC(=O)O)CSC1=S
III. CCCCN1CSC(=S)N(CC(=O)O)C1
IV. CCCN1CN(CC(=O)OC)CSC1=S
query: Sort low-to-high on IC50, please. Please list the labels in the order you were asked to rank them.
result: II, III, I, IV
(II: 24.6 µM, III: 36.6 µM, I: 93.1 µM, IV: 203 µM)
